For each entry below, report its pIC50 value.
Biological target: Human Cot (Homo sapiens (Human))
Sequence (P41279 30-397): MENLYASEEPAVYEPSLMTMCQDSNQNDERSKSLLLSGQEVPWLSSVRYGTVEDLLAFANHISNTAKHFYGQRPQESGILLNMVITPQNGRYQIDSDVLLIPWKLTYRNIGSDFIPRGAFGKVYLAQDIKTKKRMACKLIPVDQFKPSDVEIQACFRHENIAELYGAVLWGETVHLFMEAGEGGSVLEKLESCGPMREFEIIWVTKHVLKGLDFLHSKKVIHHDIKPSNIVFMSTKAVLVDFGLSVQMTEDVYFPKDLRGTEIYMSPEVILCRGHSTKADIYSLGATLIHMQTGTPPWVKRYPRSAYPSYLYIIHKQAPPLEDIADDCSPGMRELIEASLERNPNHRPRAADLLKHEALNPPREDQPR
Assay: High Throughput Cot Biochemical Assay
Conditions: IC50 HTRF, Cot HTRF (TR-FRET) biochemical assay
One number for each entry, as −log10 of the molar value.

Please review the entries below; each comes with its answer.
{"columns": ["COMPOUND", "VAL"],
 "data": [
  ["Cn1nccc1[C@H](Nc1cc(Cl)c2ncc(C#N)c(Nc3ccc(F)c(Cl)c3)c2c1)c1cn(C2CCN(C(C)(C)C)CC2)nn1", 8.52],
  ["Cc1nc([C@H](Nc2cc(Cl)c3ncc(C#N)c(NCC(C)(C)C)c3c2)c2cn(C3(C(F)F)CC3)nn2)c(C)o1", 7.24],
  ["COC[C@H](Nc1c(C#N)cnc2c(Cl)cc(N[C@@H](c3cccnc3)c3cn(C(C)C)nn3)cc12)c1ccccc1", 5.07],
  ["N#Cc1cnc2c(Cl)cc(N[C@H](c3c[nH]nn3)c3cccnc3F)cc2c1Nc1cnc(F)c(F)c1", 8.10],
  ["Cc1nc(F)ccc1[C@H](Nc1cc(Cl)c2ncc(C#N)c(N[C@@H](c3ccccc3)C3CC3)c2c1)c1cn(C2(C(F)(F)F)CC2)nn1", 7.70]
]}

Report pIC50 for every entry below.
1. CCN1CC[C@@H](n2cc(C(Nc3cc(Cl)c4ncc(C#N)c(Nc5ccc(F)c(Cl)c5)c4c3)c3cccnc3)nn2)C1 (stereo partly drawn)
2. CC(C)(C)CNc1c(C#N)cnc2c(C#N)cc(N[C@H](c3cn(C4CC4)nn3)c3cccc4ncccc34)cc12
3. Cc1nc(F)ccc1[C@H](Nc1cc(C#N)c2ncc(C#N)c(NCC(C)(C)C)c2c1)c1cn(C2(C(F)(F)F)CC2)nn1
4. Cc1nc(F)ccc1[C@H](Nc1cc(C#N)c2ncc(C#N)c(NCC(C)(C)C)c2c1)c1cn(C2(C(F)F)CC2)nn1

Key:
1. 7.72
2. 8.70
3. 8.52
4. 8.70

----------
System: TNFα
Assay: Cot Monocyte TNFα Cell Based Assay
Settings: Homo sapiens, Monocyte, read-out: EC50 TNF, LPS-stimulated human monocytes, TNFα
I'd appreciate it if you could supply log10 of EC50 values for the items below.
Parameter value (number): base-10 log of EC50 in nM.

Example results:
{"columns": ["COMPOUND", "SYSTEM", "log10 of EC50"],
 "data": [
  ["CC(C)(C)CNc1c(C#N)cnc2c(C#N)cc(N[C@H](c3cn(C4CCN(C(C)(C)C)CC4)nn3)c3cccc4ncsc34)cc12", "TNFα", 1.40],
  ["Cc1nc(Cl)ccc1[C@H](Nc1cc(Cl)c2ncc(C#N)c(Nc3ccc(F)c(Cl)c3)c2c1)c1cn(C(C)C)nn1", "TNFα", 2.22],
  ["[2H][C@](Nc1cc(Cl)c2ncc(C#N)c(NCC(C)(C)C)c2c1)(c1cccnc1)c1cn(C2CC2)nn1", "TNFα", 2.08]
]}

Give log10 of EC50 for each listed item.
1. N#Cc1cnc2c(Cl)cc(N[C@@H](c3cncc(Cl)c3)c3cn(C4CC4)nn3)cc2c1Nc1cnc(F)c(F)c1
2. Cc1nc(F)ccc1[C@H](Nc1cc(Cl)c2ncc(C#N)c(NCC(C)(C)C)c2c1)c1nnn(C2CC2)c1C
3. CC(C)(CNc1c(C#N)cnc2c(Cl)cc(N[C@H](c3cn(C45CC(C4)C5)nn3)c3cccc4ncccc34)cc12)C(F)(F)F

Key:
[2.57, 2.12, 1.66]

Would you mind giving log10 of EC50 for every compound in the list below?
1. CC(C)(C)N1CCC(n2cc([C@@H](Nc3cc(Cl)c4ncc(C#N)c(Nc5ccc(Cl)c(Cl)c5F)c4c3)c3cccnc3)nn2)CC1
2. Cc1ncsc1[C@H](Nc1cc(Cl)c2ncc(C#N)c(Nc3cccc(Cl)c3F)c2c1)c1cn(C(C)C)nn1
3. CC[C@@H](Nc1c(C#N)cnc2c(Cl)cc(N[C@H](c3cn(C4(C(F)F)CC4)nn3)c3ccc(F)nc3C)cc12)c1ccccc1

Key:
1: 2.10; 2: 2.08; 3: 1.92
